# System: human LINE-1
# assaySummary: Human LINE-1 retrotransposition assay (HeLa cell-based dual-luciferase reporter, plasmid pYX017)
# conditionInfo: Homo sapiens; HeLa cells, 72 h incubation, Firefly/Renilla luciferase; experiment 4; read-out: Human LINE-1 IC50, Exp. 4
Structures can show the parent of a compound that is named as a salt.
readoutLabel: IC50 (nM)

                                   molecule  targetortestsystem  readoutlabel  observed
0  Cc1cn([C@H]2C=C[C@@H](CO)O2)c(=O)[nH]c1=O        human LINE-1          IC50       710
1       Nc1ccn([C@@H]2CS[C@H](CO)O2)c(=O)n1        human LINE-1          IC50       340
2      Nc1nc(=O)n([C@@H]2CS[C@H](CO)O2)cc1F        human LINE-1          IC50      1300
3     Nc1nc(=O)n([C@@H]2C=C[C@H](CO)O2)cc1F        human LINE-1          IC50       110
4  Nc1nc(NC2CC2)c2ncn([C@H]3C=C[C@@H](CO)C3)c2n1 [Abacavir sulfate]        human LINE-1          IC50     17400
5  CC(C)OC(=O)OCOP(=O)(CO[C@H](C)Cn1cnc2c(N)ncnc21)OCOC(=O)OC(C)C        human LINE-1          IC50       260
6       Nc1ccn([C@H]2CO[C@@H](CO)S2)c(=O)n1        human LINE-1          IC50      5220
